Test system: SREBP-2
test: SREBP-2 expression in cultured primary human hepatocytes
Assay type: cell-based
condition info: Homo sapiens, Hepatocyte, procedure of Example 6, read-out: SREBP-2 mRNA inhibition (EC50)
Define the label as yes (1) when EC50 is strictly less than 4 µM and as no (0) in all remaining cases.

                              smiles_record  label_class
0  CCOC(=O)c1ccc(-c2cc(C(N)=O)c(N)c(-c3ccc(S(N)(=O)=O)cc3)c2)cc1       no (0)
1  NC(=O)c1cc(-c2ccc(Br)cc2)cc(-c2ccc(S(N)(=O)=O)cc2)c1NC(=O)C1CC1       no (0)
2  CCC(=O)Nc1ccc(-c2cc(-c3ccc(Cl)cc3)cc(C(N)=O)c2N)cc1       no (0)
3  NC(=O)c1cc(C#Cc2ccc(Cl)cc2)cc(-c2ccc(S(N)(=O)=O)cc2)c1N      yes (1)
4  Nc1c(C(=O)Nc2ccc(O)c(O)c2)cc(-c2ccc(Br)cc2)cc1-c1ccc(S(N)(=O)=O)cc1       no (0)
5  CCCNC(=O)c1cc(-c2ccc(Br)cc2)cc(-c2ccc(S(N)(=O)=O)cc2)c1N       no (0)
6  NC(=O)c1cc(-c2cc(Cl)c[nH]2)cc(-c2ccc(S(N)(=O)=O)cc2)c1N       no (0)
7  CCCC(=O)Oc1cccc(/C=C/c2cc(C(N)=O)c(N)c(-c3ccc(S(N)(=O)=O)cc3)c2)c1      yes (1)

====

Test system: SREBP-2
test: SREBP-2 expression in cultured primary human hepatocytes
Format: cell-based
condition info: Homo sapiens, Hepatocyte, procedure of Example 6, read-out: SREBP-2 mRNA inhibition (EC50)
Description: FIG. 9. Effects of HPN-01 on the expression of SREBP-1 (master regulator of hepatic glucose metabolism and fatty acid synthesis) and SREBP-2 (master regulator of cholesterol homeostasis in cells) in cultured primary human hepatocytes. […]
Form field: EC50 (one value per entry).
readout type: EC50 (µM)

In [3]: df
Out[3]:
                                   compound  readout_type  reported_result
0  NC(=O)c1cc(/C=C/C(=O)OCc2ccccc2)cc(-c2ccc(S(N)(=O)=O)cc2)c1N [HPN-01120]          EC50              5.1
1  CCCC(=O)Nc1ccc(-c2cc(-c3ccc(Cl)cc3)cc(C(N)=O)c2N)cc1 [HPN-01409]          EC50             1.42
2  Nc1c(C(=O)Nc2cc[nH]c2)cc(-c2ccc(Cl)cc2)cc1-c1ccc(S(N)(=O)=O)cc1 [HPN-01628]          EC50             5.48
3  NC(=O)c1cc(-c2ccc(Cl)cc2)cc(Sc2cccc(S(N)(=O)=O)c2)c1N [HPN-01414]          EC50             9.86
4  NC(=O)c1cc(/C=C/c2ccc(Br)cc2)cc(-c2ccc(S(N)(=O)=O)cc2)c1N [HPN-01109]          EC50             4.46
5  COc1cccc(NC(=O)c2cc(-c3ccc(Cl)cc3)cc(-c3ccc(S(N)(=O)=O)cc3)c2N)c1 [HPN-01619]          EC50             7.95
6  NC(=O)c1cc(Oc2cccc(C(=O)O)c2)cc(-c2ccc(S(N)(=O)=O)cc2)c1N [HPN-01318]          EC50             1.16
7  COC(=O)c1cccc(Nc2cc(C(N)=O)c(N)c(-c3ccc(S(N)(=O)=O)cc3)c2)c1 [HPN-01319]          EC50             3.42

Reference source for all entries: patent US11000491B2
